Target: LTB4 receptors (Homo sapiens, UniProt Q15722)
Construct: vital U937 cells (differentiated human monocytary cell line with naturally expressed LTB4 receptors); endogenous in cells
Sequence (Q15722 whole entry): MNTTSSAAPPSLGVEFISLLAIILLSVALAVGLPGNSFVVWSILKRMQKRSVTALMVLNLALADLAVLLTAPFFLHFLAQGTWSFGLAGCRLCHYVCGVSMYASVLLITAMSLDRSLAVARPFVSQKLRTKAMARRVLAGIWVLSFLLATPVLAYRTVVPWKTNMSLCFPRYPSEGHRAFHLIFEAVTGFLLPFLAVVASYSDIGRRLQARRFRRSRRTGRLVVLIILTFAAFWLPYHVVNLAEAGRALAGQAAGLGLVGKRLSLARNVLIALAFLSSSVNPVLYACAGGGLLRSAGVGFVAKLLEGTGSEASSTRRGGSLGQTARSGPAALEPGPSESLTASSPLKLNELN
Assay: U937 receptor binding test/LTB4
Details: 3H-LTB4 (3 nM), vital U937 cells, incubation 2 hours at 0°C; read-out: Receptor binding U937-8 Ki
pKi: −log10 of the molar value.

- SMILES_STRUCTURE: "CCCc1c(OC)cccc1OCCCCOc1ccc(C(=N)N)cc1"
  STUDY_SYSTEM: "LTB4 receptors (Homo sapiens, UniProt Q15722)"
  pKi: 7.92

Hello, the source for this data is patent US6489365B1, in case you need it.
